Reported CH20°C (constant humidity) values for a set of molecules
# TEST: Measurement of constant humidity values for coating compounds
# Assay type: physicochemical
# CONDITION_LABEL: 20°C; % RH of air over saturated aqueous solution
# Text: The term "constant humidity" (in the context of the invention sometimes abbreviated as CH) of a compound or substance is to be understood as the % RH of atmospheric air in equilibrium with a saturated aqueous solution of said compound in contact with the solid phase of said compound, all confined within a closed space at a given temperature. […]
Could you give me the number in %? Just the number is fine.

>>> observed("O=P([O-])(O)O.[K+]")
92
>>> observed("N.O=P(O)(O)O")
93.1
>>> observed("O=S(=O)([O-])O.[K+]")
86
>>> observed("O=S(=O)([O-])[O-].[Zn+2]")
90
>>> observed("O=P([O-])([O-])O.[Na+].[Na+]")
95

Below: the item to evaluate.
Challenge: Returns the measured CH20°C (constant humidity) for the input molecule. Input: O=S(=O)([O-])[O-].[Na+].[Na+] [Na2SO4, sodium sulfate]
Response given: 93

====

Below, each entry is listed with its recorded Constant humidities at 25°C.
# TEST: Measurement of constant humidity values for coating compounds
# Assay type: physicochemical
# CONDITION_LABEL: 25°C
Form: value (number only, do not type unit).

Below: 2 compounds and their reported Constant humidities at 25°C.
>>> observed("O=S(=O)([O-])[O-].[Na+].[Na+] [Na2SO4, sodium sulfate]")
93
>>> observed("O=C([O-])CC(O)(CC(=O)[O-])C(=O)[O-].[Na+].[Na+].[Na+] [sodium citrate]")
86

Challenge: Query (compound): N.N.O=S(=O)(O)O [Ammonium sulfate] ; field requested: Constant humidities at 25°C
Response given: 79

Challenge: Would you kindly share the measured Constant humidities at 25°C for O=C[O-].[Na+] [sodium formiate] ?
Response given: 56
